System: Alpha-1A adrenergic receptor (Rattus norvegicus)
Sequence (P43140 whole entry): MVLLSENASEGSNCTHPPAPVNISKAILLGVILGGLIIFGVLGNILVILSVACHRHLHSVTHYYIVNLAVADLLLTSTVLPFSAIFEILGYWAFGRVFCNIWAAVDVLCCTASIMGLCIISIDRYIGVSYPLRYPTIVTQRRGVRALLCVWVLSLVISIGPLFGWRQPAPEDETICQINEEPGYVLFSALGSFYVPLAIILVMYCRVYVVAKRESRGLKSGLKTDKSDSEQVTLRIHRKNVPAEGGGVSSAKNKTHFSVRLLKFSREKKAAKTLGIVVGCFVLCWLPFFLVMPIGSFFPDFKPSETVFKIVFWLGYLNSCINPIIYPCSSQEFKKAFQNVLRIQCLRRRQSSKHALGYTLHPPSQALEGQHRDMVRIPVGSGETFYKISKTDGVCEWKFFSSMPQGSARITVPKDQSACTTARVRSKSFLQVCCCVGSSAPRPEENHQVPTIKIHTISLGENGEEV
pKi: −log10 of the molar value.
Short version: pKi at least 6 is label 1, less is label 0.

[[record]]
compound = "CCS(=O)(=O)Nc1cccc2c1CCCC2(O)c1c[nH]cn1 (stereo not drawn)"
category = "label 0"

[[record]]
compound = "O=S(=O)(Nc1cccc2c1CCCC2c1c[nH]cn1)C1CC1 (stereo not drawn)"
category = "label 1"

[[record]]
compound = "CCS(=O)(=O)Nc1cc(Cl)cc2c1CCCC2c1c[nH]cn1 (stereo not drawn)"
category = "label 1"

[[record]]
compound = "CCS(=O)(=O)Nc1cccc(Cc2c[nH]cn2)c1C"
category = "label 1"

[[record]]
compound = "CS(=O)(=O)Nc1cccc2c1CCCC2C1=NCCN1 (stereo not drawn)"
category = "label 1"

[[record]]
compound = "Cn1cncc1C1CCCc2c(NS(C)(=O)=O)cccc21 (stereo not drawn)"
category = "label 0"

[[record]]
compound = "CCCS(=O)(=O)Nc1cccc2c1CCCC2c1c[nH]cn1 (stereo not drawn)"
category = "label 0"

[[record]]
compound = "CCS(=O)(=O)Nc1cccc(C2CCNC2)c1 (stereo not drawn)"
category = "label 1"

[[record]]
compound = "CCS(=O)(=O)Nc1cc(F)cc2c1CCCC2c1c[nH]cn1 (stereo not drawn)"
category = "label 1"

[[record]]
compound = "CC(N)C(O)c1ccccc1 (stereo not drawn)"
category = "label 0"

[[record]]
compound = "CCS(=O)(=O)Nc1cccc(CC2CN=CN2)c1 (stereo not drawn)"
category = "label 0"


----------
Here's what we have: Ki numbers for Alpha-1B adrenergic receptor (Mesocricetus auratus).
Assay Endpoint: Ki (µM)

[[record]]
compound = "CCS(=O)(=O)Nc1cccc2c1CCCC2c1c[nH]cn1 (single isomer, unassigned; (+))"
inequality_symbol = "="
observed = 1.32

[[record]]
compound = "CCS(=O)(=O)Nc1cc(Cl)cc2c1CCCC2c1c[nH]cn1 (configuration not stated)"
inequality_symbol = ">"
observed = 10

[[record]]
compound = "CC(N)C(O)c1ccccc1 (configuration not stated) [PHENYLPROPANOLAMINE]"
inequality_symbol = "="
observed = 9.55

[[record]]
compound = "O=S(=O)(Nc1cccc2c1CCCC2c1c[nH]cn1)c1ccc2ccccc2c1 (configuration not stated)"
inequality_symbol = "="
observed = 0.214

[[record]]
compound = "CN(C)S(=O)(=O)Nc1cccc2c1CCCC2c1c[nH]cn1 (configuration not stated)"
inequality_symbol = ">"
observed = 10

[[record]]
compound = "Cn1cncc1C1CCCc2c(NS(C)(=O)=O)cccc21 (configuration not stated)"
inequality_symbol = ">"
observed = 10

[[record]]
compound = "O=C(Nc1cccc2c1CCCC2c1c[nH]cn1)C(F)(F)F (configuration not stated)"
inequality_symbol = ">"
observed = 10


----------
System: Alpha adrenergic receptor 1A and 1B (Rattus norvegicus) (UniProt P15823+P43140)
Sequence (P15823 whole entry, looked up, one chain of several): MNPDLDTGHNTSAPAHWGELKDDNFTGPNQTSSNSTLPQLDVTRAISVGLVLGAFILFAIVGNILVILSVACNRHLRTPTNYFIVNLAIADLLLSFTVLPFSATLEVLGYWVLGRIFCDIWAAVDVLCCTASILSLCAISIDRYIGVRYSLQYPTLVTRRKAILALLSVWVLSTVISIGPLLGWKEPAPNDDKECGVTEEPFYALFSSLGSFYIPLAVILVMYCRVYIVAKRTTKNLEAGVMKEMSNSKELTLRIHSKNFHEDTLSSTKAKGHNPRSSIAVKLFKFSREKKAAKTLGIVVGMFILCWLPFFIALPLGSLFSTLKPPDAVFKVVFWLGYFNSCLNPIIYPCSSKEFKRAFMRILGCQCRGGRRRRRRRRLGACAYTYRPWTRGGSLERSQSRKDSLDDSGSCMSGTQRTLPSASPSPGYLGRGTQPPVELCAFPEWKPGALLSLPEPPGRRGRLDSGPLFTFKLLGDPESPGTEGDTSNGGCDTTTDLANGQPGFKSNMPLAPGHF
Protocol Description: Selectivity is ratio of pKi (binding affinity) of alpha-1B receptor to that of alpha-1A receptor.
Format: protein assay
Assay Endpoint: Selectivity

[[record]]
compound = "CCS(=O)(=O)Nc1cccc2c1CCCC2CNC (stereo not given)"
observed = "> 7"

[[record]]
compound = "CN(c1cccc2c1CCCC2c1c[nH]cn1)S(C)(=O)=O (stereo not given)"
observed = "> 50"

[[record]]
compound = "CCS(=O)(=O)Nc1cccc2c1CCCC2CN (stereo not given)"
observed = "> 10"

[[record]]
compound = "CC(C)S(=O)(=O)Nc1cccc2c1CCCC2c1c[nH]cn1 (stereo not given)"
observed = "> 9"

[[record]]
compound = "O=S(=O)(Nc1cccc2c1CCCC2c1c[nH]cn1)C1CC1 (stereo not given)"
observed = "> 19"

[[record]]
compound = "CN(C)S(=O)(=O)Nc1cccc2c1CCCC2c1c[nH]cn1 (stereo not given)"
observed = 20

[[record]]
compound = "O=S(=O)(CC(F)(F)F)Nc1cccc2c1CCCC2c1c[nH]cn1 (single isomer, unassigned; (+))"
observed = "> 80"

[[record]]
compound = "Cc1ccc(NS(C)(=O)=O)c2c1C(c1c[nH]cn1)CCC2 (stereo not given)"
observed = "> 26"

[[record]]
compound = "COc1ccc(NS(C)(=O)=O)c2c1C(c1c[nH]cn1)CCC2 (stereo not given)"
observed = "> 6"

[[record]]
compound = "CCS(=O)(=O)Nc1cc(C2CCCCC2)cc2c1CCCC2c1c[nH]cn1 (stereo not given)"
observed = 3

[[record]]
compound = "O=S(=O)(Nc1cccc2c1CCCC2c1c[nH]cn1)c1ccc2ccccc2c1 (stereo not given)"
observed = 1

[[record]]
compound = "CS(=O)(=O)Nc1ccc(F)c2c1CCCC2c1c[nH]cn1 (stereo not given)"
observed = "> 32"

[[record]]
compound = "CS(=O)(=O)Nc1ccc(O)c2c1CCCC2c1c[nH]cn1 (stereo not given)"
observed = "> 14"

[[record]]
compound = "CCS(=O)(=O)Nc1cccc(C2CCNC2)c1 (stereo not given)"
observed = "> 20"

[[record]]
compound = "CC(N)C(O)c1ccccc1 (stereo not given) [PHENYLPROPANOLAMINE]"
observed = 1

[[record]]
compound = "CCS(=O)(=O)Nc1cccc2c1SCCC2c1c[nH]cn1 (stereo not given)"
observed = 10

[[record]]
compound = "CCS(=O)(=O)Nc1cccc2c1CCCC2c1c[nH]cn1 (single isomer, unassigned; (+))"
observed = 30

[[record]]
compound = "CCCS(=O)(=O)Nc1cccc2c1CCCC2c1c[nH]cn1 (stereo not given)"
observed = "> 6"

[[record]]
compound = "CCS(=O)(=O)Nc1cc(Cl)cc2c1CCCC2c1c[nH]cn1 (stereo not given)"
observed = "> 217"

[[record]]
compound = "CS(=O)(=O)Nc1cccc2c1CCCCC2c1c[nH]cn1 (stereo not given)"
observed = "> 7"

[[record]]
compound = "CCS(=O)(=O)Nc1cccc(CC2CCCN2)c1 (stereo not given)"
observed = "> 10"

[[record]]
compound = "COc1ccc(OC)c(C(O)CN)c1 (stereo not given) [DESGLYMIDODRINE]"
observed = 3

[[record]]
compound = "CCS(=O)(=O)Nc1cccc2c1COC2c1c[nH]cn1 (stereo not given)"
observed = 10

[[record]]
compound = "CCS(=O)(=O)Nc1cccc2c1CCCC2c1c[nH]c(C)n1 (stereo not given)"
observed = "> 10"

[[record]]
compound = "CCS(=O)(=O)Nc1cccc(NC2=NCCN2)c1"
observed = "> 3"

[[record]]
compound = "CCS(=O)(=O)Nc1ccc2c(c1)C(c1c[nH]cn1)CCC2 (stereo not given)"
observed = 1

[[record]]
compound = "CCS(=O)(=O)Nc1cc(F)cc2c1CCCC2c1c[nH]cn1 (stereo not given)"
observed = "> 121"

[[record]]
compound = "O=C(Nc1cccc2c1CCCC2c1c[nH]cn1)C(F)(F)F (stereo not given)"
observed = 60

[[record]]
compound = "CS(=O)(=O)Nc1ccc(Cl)c2c1CCCC2c1c[nH]cn1 (stereo not given)"
observed = "> 20"

[[record]]
compound = "CC(c1cccc(NS(C)(=O)=O)c1)c1c[nH]cn1 (stereo not given)"
observed = 10


----------
System: Alpha-2A adrenergic receptor (Homo sapiens)
Sequence (P08913 whole entry): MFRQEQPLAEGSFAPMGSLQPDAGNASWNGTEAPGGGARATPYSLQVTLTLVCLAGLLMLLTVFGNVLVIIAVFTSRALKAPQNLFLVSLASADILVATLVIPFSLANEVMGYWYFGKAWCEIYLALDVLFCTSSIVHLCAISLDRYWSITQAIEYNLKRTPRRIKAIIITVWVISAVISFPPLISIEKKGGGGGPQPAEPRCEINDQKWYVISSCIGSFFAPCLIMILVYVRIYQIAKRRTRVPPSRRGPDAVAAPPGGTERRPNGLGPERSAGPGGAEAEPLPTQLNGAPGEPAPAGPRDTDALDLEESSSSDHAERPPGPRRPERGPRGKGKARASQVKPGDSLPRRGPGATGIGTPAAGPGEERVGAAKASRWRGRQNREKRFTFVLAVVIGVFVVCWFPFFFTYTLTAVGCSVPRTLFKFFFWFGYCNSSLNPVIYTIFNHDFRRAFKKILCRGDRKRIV
Assay Endpoint: Ki (nM)

[[record]]
compound = "CCS(=O)(=O)Nc1cccc2c1CCCC2c1c[nH]cn1 (single isomer, unassigned; (+))"
system = "Alpha-2A adrenergic receptor (Homo sapiens)"
observed = 132

[[record]]
compound = "CN(c1cccc2c1CCCC2c1c[nH]cn1)S(C)(=O)=O (stereo not drawn)"
system = "Alpha-2A adrenergic receptor (Homo sapiens)"
observed = 85.1

[[record]]
compound = "CS(=O)(=O)Nc1cccc2c1CCCC2c1c[nH]cn1 (stereo not drawn)"
system = "Alpha-2A adrenergic receptor (Homo sapiens)"
observed = 105


The origin of these recorded values is ChEMBL document CHEMBL1148329.
